Where these numbers come from: PubChem BioAssay (NCI)

Tested on: OVCAR-5 ovarian
Assay: NCI-60 one-dose screen, 48 h (100 = growth as untreated, 0 = no growth, -100 = all killed)
Details: 10 µM
About 83,000 compounds went through this panel and 20% of them were active in at least one assay; those are over-represented in the sample as a whole.
property_measured: growth (%)
Quick note: give the figure in %, leave out the unit.

**Query** Given the entry COc1cc(/C=C/c2cc(/C=C/c3ccc(O)c(OC)c3)n(C(=O)Nc3ccccc3Cl)n2)ccc1O , what growth was observed with OVCAR-5 ovarian?
**Result** 13.2

**Query** # query: growth | item O=C1/C=C/[C@@H](O)[C@@H]2C[C@@H](O)C[C@H]2/C=C/CCC[C@@H](C(F)(F)F)O1 | system: OVCAR-5 ovarian
**Result** 107

**Query** Observed growth on OVCAR-5 ovarian for CN(C)c1ccc(/C=N/NC(=O)c2ccccc2Nc2cccc(C(F)(F)F)c2)cc1 , please.
**Result** 88.4

**Query** Give OVCAR-5 ovarian growth for O=C(/C=C/C=C/c1c(C2CC2)nc2ccccc2c1-c1ccc(F)cc1)c1cccs1
**Result** 1.66

**Query** Lab note: need growth for Cc1ccc(NCCN(C)CC(C)O)c2c(=O)c3ccccc3sc12 (stereo not given) on OVCAR-5 ovarian, anyone have it?
**Result** 61.8

**Query** Request - read-out growth | tested on OVCAR-5 ovarian | compound CCOC(=O)c1sc2ncnc(Nc3ccc4c(cnn4C(=O)Nc4ccccc4)c3)c2c1C
**Result** 98.9

**Query** What reported growth corresponds to Cc1ccccc1N1C(=O)c2cc(S(N)(=O)=O)c(Cl)cc2NC1C (stereo not given) on OVCAR-5 ovarian?
**Result** 108

**Query** Lab note: need growth with OVCAR-5 ovarian for entry C/C(=N\O)c1ccc(NC(=O)CSc2nnc(-c3ccccc3)n2-c2ccccc2)cc1 , please look it up.
**Result** 86.2

**Query** Which growth is reported with OVCAR-5 ovarian for this entry: O=C(Nc1cc(Cl)cc2c1-c1ccc(Cl)cc1C2O)C(Cl)Cl (stereo not given) ?
**Result** 94.8

**Query** Provide the documented growth with OVCAR-5 ovarian as the system for O=C(Cn1cc(CO)nn1)Nc1nc2ccccc2s1
**Result** 101

---

System: PC-3 prostate
Test: NCI-60 one-dose screen, 48 h (100 = growth as untreated, 0 = no growth, -100 = all killed)
Details: 10 µM
Procedure: Growth inhibition of the PC-3 human tumor cell line is measured as a screen for anti-cancer activity. Cells are grown in 96 well plates and exposed to the test compound for 48 hours. Compounds are tested at a single concentration, which is 10^-5 M for most compounds. The reported endpoint is percent growth (GI% or GIPRCNT), where numbers from 0 - 100% represent growth inhibition, and numbers from -100% - 0 represent cell death. For example, a value of 40 represents 60% growth inhibition. […]
About 83,000 compounds went through this panel and 20% of them were active in at least one assay; those are over-represented in the sample as a whole.
Give measured growth for each item. Keep answers brief.
All answers are understood in %, so give the number only.

**Query** If you can, please state the reported growth value of CC(=O)Oc1cc(OC(C)=O)c2ccccc2c1OC(C)=O .
**Result** 62.6

**Query** For N#Cc1ccc(C(=O)CSc2nccc(Nc3ccc(C(=O)O)cc3)n2)cc1 , what is its reported growth?
**Result** 99.5

**Query** Any idea what its growth is? The compound is CCOC(=O)Cn1c(=O)c2sc3ncccc3c2n2nnc(-c3ccccc3)c12
**Result** 94.8

**Query** What value of growth has been recorded for this entry: Cc1c2cnccc2c(C)c2c1oc1ccccc12
**Result** 99.8

**Query** Return reported growth; argument: Cc1cc(SCc2ccccc2)nc(N)n1
**Result** 111

**Query** // returns reported growth for input Cc1c(O)c(=O)ccn1C1CCC(CC2CCC(n3ccc(=O)c(O)c3C)CC2)CC1 (stereo not drawn)
**Result** 41.7

**Query** Return reported growth; argument: O=C(Nc1cc([N+](=O)[O-])c2[nH]c(=O)c3ccccc3c2c1)C(F)(F)F
**Result** 94.4

**Query** Give its growth value. Item: COc1cc(-c2nn(-c3cccc(NC(=O)CCN4CCN(Cc5ccccc5)CC4)c3)cc2-c2ccncc2)ccc1Cl
**Result** 7.06

**Query** What value of growth has been reported for the following compound? Cc1ccc(C)c(COc2cc(NC(=O)c3ccc4c(c3)OCO4)ccc2N(C)S(C)(=O)=O)c1
**Result** 26.8

**Query** # input compound: CCCN1CN2C(=O)N3CN(CCC)CN4C(=S)N(C1)C2C34 (stereo not drawn) ; wanted: its growth
**Result** 91.5

**Query** // growth lookup, key: C/C=C/C1=CN2C(=O)c3cc(OC4OC(C)C(NC)C(C)(O)C4O)c(C)c(O)c3N=C[C@@H]2C1 (stereo partly drawn)
**Result** 3.42

**Query** May I ask what growth has been recorded for C=CCSC(CC)(CC)C(=O)NC ?
**Result** 101

**Query** # input compound: O=C(Nc1nc(-c2ccccc2)nc2c1sc(=S)n2-c1ccccc1)C(F)(F)F ; wanted: its growth
**Result** 79.5
